tested on: primary cortico-hippocampal neuron cultures; assay: MTT in primary screening; settings: primary screening; table sorted by Aβ1-42
Where a name gives a salt, the structure may show the parent alone.
Reported MTT (% of ctl) values follow for various molecules

Solved cases below.
CCCCc1nc(Cl)c(CO)n1Cc1ccc(-c2ccccc2-c2nn[nH]n2)cc1 [Losartan]; 71.3 % of ctl
NCCc1cc(O)c(O)cc1O [Oxidopamine Hydrochloride]; 121.5 % of ctl
CCOc1nc2cccc(C(=O)OC(C)OC(=O)OC3CCCCC3)c2n1Cc1ccc(-c2ccccc2-c2nn[nH]n2)cc1 (stereo not shown) [Candesartan Cilextil]; 41.2 % of ctl

Now turn to the next molecule.
So for CO[C@H]1[C@H](O)[C@H](O[C@H]2CC[C@@]3(C)[C@H](CC[C@@H]4[C@@H]3CC[C@]3(C)[C@@H](C5=CC(=O)OC5)CC[C@]43O)C2)O[C@@H](C)[C@@H]1O [Neriifolin] , the logged MTT (% of ctl) turned out to be 101.2 % of ctl
